Origin of values: paper PMC8809517

I'd be grateful if you could share measured pKd for these entries.
- measured-target: T1, GFP-9S library array, motif 4 ND N98P;D124R (synthetic construct, N98P;D124R)
- T1 chain: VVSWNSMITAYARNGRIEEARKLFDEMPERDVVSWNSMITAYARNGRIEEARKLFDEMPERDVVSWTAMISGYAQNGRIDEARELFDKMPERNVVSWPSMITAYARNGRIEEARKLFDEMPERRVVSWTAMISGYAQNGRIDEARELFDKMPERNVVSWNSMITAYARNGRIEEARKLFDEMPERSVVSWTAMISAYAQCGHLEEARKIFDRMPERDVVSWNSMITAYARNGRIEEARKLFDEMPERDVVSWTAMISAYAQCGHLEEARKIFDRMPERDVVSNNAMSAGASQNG
- test-description: high-throughput RNA pulldown from lysate on Ni-NTA beads; HRP: 50 mM Tris pH 8, 150 mM NaCl, 1 mM beta-mercaptoethanol, 50 ug/ml BSA, 3 ug/ml yeast RNA, 0.5% heparin; ITC and FP: Tris pH 8, 200 mM KCl, 5% glycerol; MST: 50 mM Tris pH 8, 200 mM NaCl, 1 mM DTT, BSA, heparin, 0.05% Tween 20
- measurement-setup: tags: N-terminal His-eGFP; label: 5' Cy5
One number for each entry, as −log10 of the molar value.

- binder: "AUUACACGUGA (ssRNA) [Cy5-rpoA]"
  pKd: 6.82

Please find the next binder below.
Challenge: Specify reported pKd for the binder shown: AUUAGACGUGA (ssRNA) [Cy5-rpoA-G]
Response given: 6.78
